Biological target: Androgen receptor (Rattus norvegicus)
Sequence (P15207 whole entry): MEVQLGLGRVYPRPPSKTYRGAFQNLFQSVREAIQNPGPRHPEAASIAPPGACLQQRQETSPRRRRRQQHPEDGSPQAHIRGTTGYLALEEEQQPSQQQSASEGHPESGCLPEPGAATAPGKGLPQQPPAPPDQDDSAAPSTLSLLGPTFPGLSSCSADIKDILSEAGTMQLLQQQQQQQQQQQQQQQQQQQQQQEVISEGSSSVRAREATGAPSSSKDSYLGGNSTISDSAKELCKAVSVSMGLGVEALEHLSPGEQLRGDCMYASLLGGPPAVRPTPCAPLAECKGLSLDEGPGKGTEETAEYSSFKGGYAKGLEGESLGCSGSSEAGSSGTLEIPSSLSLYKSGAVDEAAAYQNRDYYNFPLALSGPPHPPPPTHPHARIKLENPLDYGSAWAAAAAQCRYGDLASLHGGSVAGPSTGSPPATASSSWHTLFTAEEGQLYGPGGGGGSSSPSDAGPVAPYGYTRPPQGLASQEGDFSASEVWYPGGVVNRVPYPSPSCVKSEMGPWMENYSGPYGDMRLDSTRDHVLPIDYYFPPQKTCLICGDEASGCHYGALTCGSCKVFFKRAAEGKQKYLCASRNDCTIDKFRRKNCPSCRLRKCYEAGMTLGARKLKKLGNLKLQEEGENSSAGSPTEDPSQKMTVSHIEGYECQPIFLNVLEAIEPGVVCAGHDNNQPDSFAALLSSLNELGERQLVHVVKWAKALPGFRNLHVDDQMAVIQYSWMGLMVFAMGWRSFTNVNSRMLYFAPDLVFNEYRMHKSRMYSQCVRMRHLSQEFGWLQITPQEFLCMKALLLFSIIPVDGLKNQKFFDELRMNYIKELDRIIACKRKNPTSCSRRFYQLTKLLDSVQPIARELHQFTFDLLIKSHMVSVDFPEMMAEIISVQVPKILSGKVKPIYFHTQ
Readout kind: Ki (µM)
Quick reminder: number only, in µM, skip the unit.

Task item: Look at this compound and give its reported Ki. "C[C@]12CC[C@@H]3c4ccc(O)cc4CC[C@H]3[C@@H]1CCC2=O"
Reply: 7.74
